target: GluN1/GluN2C NMDA receptor (Rattus norvegicus, UniProt P35439+Q00961); assay: Two-electrode voltage-clamp recordings, Xenopus oocytes expressing GluN1/GluN2C
Sequence (Q00961 20-1237, other chains not shown): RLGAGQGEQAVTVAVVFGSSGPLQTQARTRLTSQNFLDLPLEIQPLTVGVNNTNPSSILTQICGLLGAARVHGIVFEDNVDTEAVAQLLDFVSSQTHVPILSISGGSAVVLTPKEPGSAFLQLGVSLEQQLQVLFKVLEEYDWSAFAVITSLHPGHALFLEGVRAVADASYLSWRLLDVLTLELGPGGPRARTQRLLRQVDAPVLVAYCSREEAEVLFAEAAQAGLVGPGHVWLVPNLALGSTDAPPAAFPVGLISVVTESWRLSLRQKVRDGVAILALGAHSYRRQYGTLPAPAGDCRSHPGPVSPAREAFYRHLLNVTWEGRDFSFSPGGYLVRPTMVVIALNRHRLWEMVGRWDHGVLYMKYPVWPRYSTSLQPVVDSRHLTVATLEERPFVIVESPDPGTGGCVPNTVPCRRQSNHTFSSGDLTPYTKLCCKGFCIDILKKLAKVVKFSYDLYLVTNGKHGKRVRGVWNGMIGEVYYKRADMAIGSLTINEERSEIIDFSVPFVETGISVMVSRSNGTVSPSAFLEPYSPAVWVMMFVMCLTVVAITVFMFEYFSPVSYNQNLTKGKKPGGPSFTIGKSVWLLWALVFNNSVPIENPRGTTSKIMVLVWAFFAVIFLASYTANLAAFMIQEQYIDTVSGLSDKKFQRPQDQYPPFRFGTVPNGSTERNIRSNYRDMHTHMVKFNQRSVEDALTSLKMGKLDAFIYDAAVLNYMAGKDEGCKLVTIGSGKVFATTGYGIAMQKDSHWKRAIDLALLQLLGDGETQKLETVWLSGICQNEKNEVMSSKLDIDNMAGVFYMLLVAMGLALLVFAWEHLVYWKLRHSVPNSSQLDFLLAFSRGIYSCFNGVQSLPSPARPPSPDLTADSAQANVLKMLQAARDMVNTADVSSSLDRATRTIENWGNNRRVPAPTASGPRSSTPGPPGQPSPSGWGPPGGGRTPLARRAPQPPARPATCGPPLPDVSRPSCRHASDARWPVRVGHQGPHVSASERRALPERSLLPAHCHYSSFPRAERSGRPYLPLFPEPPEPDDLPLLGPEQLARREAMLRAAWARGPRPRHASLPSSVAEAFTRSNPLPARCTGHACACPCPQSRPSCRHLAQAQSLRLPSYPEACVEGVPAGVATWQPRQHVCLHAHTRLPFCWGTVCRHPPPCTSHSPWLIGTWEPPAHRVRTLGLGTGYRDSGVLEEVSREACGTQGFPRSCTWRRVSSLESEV
Define the label as met when IC50 is strictly less than 7 µM and as not met in all remaining cases.

smiles-text | tested-on | discrete-label
Cl.O=C(O)c1cccc([C@H]2CCN[C@@H]2C(=O)O)c1 | GluN1/GluN2C NMDA receptor (Rattus norvegicus, UniProt P35439+Q00961) | not met

Moving on to another molecule below.
Item `Cl.O=C(O)c1cc(C(=O)O)cc([C@H]2CCN[C@@H]2C(=O)O)c1` : IC50 beneath 7 µM, strictly?
met

====

target: GluK1 (Rattus norvegicus); assay: Radioligand binding at recombinant homomeric GluK1
Sequence (P22756 31-920 isoform P22756-4 limits assumed): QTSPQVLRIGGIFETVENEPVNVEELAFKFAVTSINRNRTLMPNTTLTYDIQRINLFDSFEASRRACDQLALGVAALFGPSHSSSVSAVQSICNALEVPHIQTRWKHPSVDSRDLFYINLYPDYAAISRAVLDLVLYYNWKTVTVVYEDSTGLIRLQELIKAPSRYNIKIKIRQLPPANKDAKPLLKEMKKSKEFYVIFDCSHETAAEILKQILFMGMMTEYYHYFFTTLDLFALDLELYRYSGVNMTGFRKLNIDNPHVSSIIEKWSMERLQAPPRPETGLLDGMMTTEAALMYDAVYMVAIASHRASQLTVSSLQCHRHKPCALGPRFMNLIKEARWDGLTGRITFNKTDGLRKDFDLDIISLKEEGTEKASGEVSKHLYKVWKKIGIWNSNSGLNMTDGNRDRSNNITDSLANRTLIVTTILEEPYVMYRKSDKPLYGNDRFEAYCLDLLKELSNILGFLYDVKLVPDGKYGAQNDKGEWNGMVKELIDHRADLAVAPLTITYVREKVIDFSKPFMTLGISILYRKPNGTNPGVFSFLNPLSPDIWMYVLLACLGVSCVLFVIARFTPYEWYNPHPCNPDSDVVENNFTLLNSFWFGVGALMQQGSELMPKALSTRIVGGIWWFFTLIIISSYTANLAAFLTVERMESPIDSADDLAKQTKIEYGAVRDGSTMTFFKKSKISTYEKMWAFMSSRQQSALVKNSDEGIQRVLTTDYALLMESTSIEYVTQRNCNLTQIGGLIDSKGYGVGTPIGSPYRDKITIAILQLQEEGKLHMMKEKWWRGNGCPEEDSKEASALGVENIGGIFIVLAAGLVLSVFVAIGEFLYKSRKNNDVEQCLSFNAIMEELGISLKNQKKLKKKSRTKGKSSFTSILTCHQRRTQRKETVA
property-measured: pKi
Note: pKi values are expressed as the negative base-10 logarithm of concentration in M.

smiles-text | pKi
Cl.O=C(O)c1cc(-c2cncnc2)cc([C@H]2CCN[C@@H]2C(=O)O)c1 | 4.00
Cl.O=C(O)c1cc(-c2ccccn2)cc([C@H]2CCN[C@@H]2C(=O)O)c1 | 4.70
Cl.O=C(O)c1cc(Br)cc([C@H]2CCN[C@@H]2C(=O)O)c1 | 5.23

Query compound follows.
Please indicate recorded pKi of `Cl.O=C(O)c1cc(C(=O)O)cc([C@H]2CCN[C@@H]2C(=O)O)c1` measured with GluK1 (Rattus norvegicus).
4.90

====

molecular target: GluN1/GluN2D NMDA receptor (Rattus norvegicus, UniProt P35439+Q62645); test: Two-electrode voltage-clamp recordings, Xenopus oocytes expressing GluN1/GluN2D
Sequence (Q62645 28-1323, other chains not shown): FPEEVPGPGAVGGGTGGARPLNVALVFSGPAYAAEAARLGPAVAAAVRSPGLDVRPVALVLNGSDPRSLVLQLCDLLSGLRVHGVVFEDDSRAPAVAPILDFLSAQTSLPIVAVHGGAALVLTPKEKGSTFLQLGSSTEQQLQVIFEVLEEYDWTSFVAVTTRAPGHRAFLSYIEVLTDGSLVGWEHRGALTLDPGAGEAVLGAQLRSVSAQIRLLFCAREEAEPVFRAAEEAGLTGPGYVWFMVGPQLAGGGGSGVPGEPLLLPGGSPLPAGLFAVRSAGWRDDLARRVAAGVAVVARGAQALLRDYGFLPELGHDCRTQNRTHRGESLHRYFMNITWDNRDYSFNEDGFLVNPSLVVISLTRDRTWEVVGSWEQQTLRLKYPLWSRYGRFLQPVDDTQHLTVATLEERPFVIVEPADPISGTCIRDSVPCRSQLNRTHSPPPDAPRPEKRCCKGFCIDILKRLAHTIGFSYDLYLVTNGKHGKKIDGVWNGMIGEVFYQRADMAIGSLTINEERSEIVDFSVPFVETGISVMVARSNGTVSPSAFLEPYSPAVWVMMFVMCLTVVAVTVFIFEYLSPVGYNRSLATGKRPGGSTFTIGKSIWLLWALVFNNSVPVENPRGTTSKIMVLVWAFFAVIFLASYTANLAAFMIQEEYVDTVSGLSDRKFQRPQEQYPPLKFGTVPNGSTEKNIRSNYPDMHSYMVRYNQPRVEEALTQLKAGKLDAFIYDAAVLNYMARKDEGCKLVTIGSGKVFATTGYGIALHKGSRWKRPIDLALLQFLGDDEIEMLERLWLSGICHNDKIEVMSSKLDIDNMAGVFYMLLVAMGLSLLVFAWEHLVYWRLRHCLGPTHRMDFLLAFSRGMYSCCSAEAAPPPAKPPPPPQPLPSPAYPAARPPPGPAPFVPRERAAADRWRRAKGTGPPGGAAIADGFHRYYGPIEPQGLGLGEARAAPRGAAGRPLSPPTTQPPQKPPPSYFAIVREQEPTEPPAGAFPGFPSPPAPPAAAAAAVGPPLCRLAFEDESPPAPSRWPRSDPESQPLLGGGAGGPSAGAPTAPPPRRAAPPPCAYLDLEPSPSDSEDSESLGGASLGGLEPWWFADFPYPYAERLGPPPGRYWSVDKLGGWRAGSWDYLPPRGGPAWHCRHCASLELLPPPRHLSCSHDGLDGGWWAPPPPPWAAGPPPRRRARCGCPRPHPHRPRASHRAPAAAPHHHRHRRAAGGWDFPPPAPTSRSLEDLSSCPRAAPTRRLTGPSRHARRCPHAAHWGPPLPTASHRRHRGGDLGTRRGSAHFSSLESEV
Define the label as class 1 when IC50 is strictly less than 20 µM and as class 0 in all remaining cases.

smiles-text | discrete-label
Cl.O=C(O)c1cc(-c2cnn[nH]2)cc([C@H]2CCN[C@@H]2C(=O)O)c1 | class 1
O=C(O)C(F)(F)F.O=C(O)c1ccc([C@H]2CCN[C@@H]2C(=O)O)cc1 | class 0
Cl.O=C(O)c1cc([C@H]2CCN[C@@H]2C(=O)O)cc(C(=O)O)c1Cl | class 1
Cl.O=C(O)c1cc(C(=O)O)cc([C@H]2CCN[C@@H]2C(=O)O)c1 | class 0
Cl.O=C(O)c1cccc([C@H]2CCN[C@@H]2C(=O)O)c1 | class 0

Moving on to another compound below.
Item `O=C(O)c1ccc([C@H]2CCN[C@@H]2C(=O)O)cc1C(=O)O` : IC50 beneath 20 µM, strictly?
class 0

====

target: GluK2 (Rattus norvegicus); experiment: Radioligand binding at recombinant homomeric GluK2
pKi: −log10 of the molar value.
property-measured: pKi

In the examples that follow, each entry is paired with its recorded pKi.
smiles-text | pKi
Cl.O=C(O)c1cc(Br)cc([C@H]2CCN[C@@H]2C(=O)O)c1 | < 4.00
Cl.O=C(O)c1cc(-c2cncnc2)cc([C@H]2CCN[C@@H]2C(=O)O)c1 | 4.00
Cl.O=C(O)c1cc(-c2cccnc2)cc([C@H]2CCN[C@@H]2C(=O)O)c1 | < 4.00
O=C(O)C(F)(F)F.O=C(O)c1ccc([C@H]2CCN[C@@H]2C(=O)O)cc1 | < 4.00
Cl.O=C(O)c1cc(C(=O)O)cc([C@H]2CCN[C@@H]2C(=O)O)c1 | < 4.00
Cl.O=C(O)c1cc(-c2ccncc2)cc([C@H]2CCN[C@@H]2C(=O)O)c1 | < 4.00

Query compound follows.
Return the recorded pKi value; entry: `Cl.O=C(O)c1cc([C@H]2CCN[C@@H]2C(=O)O)cc(Br)c1Cl`
≤ 4.00

====

biological target: native KA receptors; experiment: Radioligand binding at native KA receptors; settings: rat synaptosomes, [3H]KA
Let's look at some compounds and their measured KA IC50, native iGluRs (synaptosomes).
Please give a number only; it is taken to be in µM.

smiles-text | property-measured | unit-label | observed-measurement
Cl.O=C(O)c1cc(-c2cnn[nH]2)cc([C@H]2CCN[C@@H]2C(=O)O)c1 | KA IC50, native iGluRs (synaptosomes) | µM | 20
O=C(O)c1cccc([C@H]2[C@H](CCO)CN[C@@H]2C(=O)O)c1 | KA IC50, native iGluRs (synaptosomes) | µM | 13
Cl.O=C(O)c1cc(-c2ccncc2)cc([C@H]2CCN[C@@H]2C(=O)O)c1 | KA IC50, native iGluRs (synaptosomes) | µM | 25

Query compound follows.
Please indicate recorded KA IC50, native iGluRs (synaptosomes) of `Cl.O=C(O)c1cc(C(=O)O)cc([C@H]2CCN[C@@H]2C(=O)O)c1` measured with native KA receptors.
63

====

Let's look at some compounds and their measured GluK2 % specific binding (Table 5).
target: GluK2 (Rattus norvegicus, UniProt P42260); test: Radioligand binding at recombinant homomeric GluK2; details: [3H]KA, mean ± SD, ligand concentration not given
Sequence (P42260 32-908): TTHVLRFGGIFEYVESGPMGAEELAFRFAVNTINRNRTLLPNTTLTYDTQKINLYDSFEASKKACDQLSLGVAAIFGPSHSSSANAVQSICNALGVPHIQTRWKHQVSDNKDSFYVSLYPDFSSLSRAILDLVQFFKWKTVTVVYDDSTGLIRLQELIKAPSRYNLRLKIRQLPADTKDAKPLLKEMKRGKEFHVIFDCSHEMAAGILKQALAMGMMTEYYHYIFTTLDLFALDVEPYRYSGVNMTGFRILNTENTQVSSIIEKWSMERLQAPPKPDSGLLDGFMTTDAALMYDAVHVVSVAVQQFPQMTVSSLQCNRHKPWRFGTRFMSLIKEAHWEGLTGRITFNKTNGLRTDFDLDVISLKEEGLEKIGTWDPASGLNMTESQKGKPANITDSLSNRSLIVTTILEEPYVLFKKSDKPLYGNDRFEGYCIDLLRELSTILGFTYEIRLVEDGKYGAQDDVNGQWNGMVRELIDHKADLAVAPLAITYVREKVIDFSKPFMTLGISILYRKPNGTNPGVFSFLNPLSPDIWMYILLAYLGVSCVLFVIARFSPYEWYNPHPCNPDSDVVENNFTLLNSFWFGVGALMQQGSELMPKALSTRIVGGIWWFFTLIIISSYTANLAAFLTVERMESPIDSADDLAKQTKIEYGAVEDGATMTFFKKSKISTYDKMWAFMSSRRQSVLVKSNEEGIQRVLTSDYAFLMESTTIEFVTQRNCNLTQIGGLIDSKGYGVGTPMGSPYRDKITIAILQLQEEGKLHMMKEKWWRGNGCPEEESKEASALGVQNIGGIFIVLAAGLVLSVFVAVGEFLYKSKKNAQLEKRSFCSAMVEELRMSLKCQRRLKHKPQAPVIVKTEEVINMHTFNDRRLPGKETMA
A complete answer gives the number followed by the unit.

compound | GluK2 % specific binding (Table 5)
CNCC[C@@H]1CN[C@H](C(=O)O)[C@H]1c1cccc(C(=O)O)c1 [9b] | 99 ± 6%
O=C(O)c1cccc([C@H]2[C@H](CCNCc3ccccc3)CN[C@@H]2C(=O)O)c1 [9c] | 86 ± 6%
Cl.O=C(O)C[C@@H]1CN[C@H](C(=O)O)[C@H]1c1cccc(C(=O)O)c1 [9e] | 97 ± 7%

Query compound follows.
Return the recorded GluK2 % specific binding (Table 5) value; entry: O=C(O)c1cccc([C@H]2[C@H](CCO)CN[C@@H]2C(=O)O)c1 [9d]
93 ± 7%

====

target: native AMPA receptors; test: Radioligand binding at native AMPA receptors; conditions: rat synaptosomes, [3H]AMPA
property-measured: AMPA pIC50 with SEM (in brackets)

compound | observed-measurement
Cl.O=C(O)c1cc(-c2ccccn2)cc([C@H]2CCN[C@@H]2C(=O)O)c1 [5e] | 4.40±0.05
Cl.O=C(O)c1cc(-c2cncnc2)cc([C@H]2CCN[C@@H]2C(=O)O)c1 [5h] | 4.30±0.13
CNCC[C@@H]1CN[C@H](C(=O)O)[C@H]1c1cccc(C(=O)O)c1 [9b] | 4.16 ± 0.02

Return the recorded AMPA pIC50 with SEM (in brackets) value; entry: Cl.O=C(O)c1cc(Br)cc([C@H]2CCN[C@@H]2C(=O)O)c1 [5b]
4.60 ± 0.04

Return the recorded AMPA pIC50 with SEM (in brackets) value; entry: Cl.O=C(O)c1cc(NC(=O)c2ccccc2)cc([C@H]2CCN[C@@H]2C(=O)O)c1 (racemic) [(±)-5m]
4.63±0.04

Return the recorded AMPA pIC50 with SEM (in brackets) value; entry: O=C(O)c1cccc([C@H]2[C@H](CCO)CN[C@@H]2C(=O)O)c1 [9d]
4.47 ± 0.007

Return the recorded AMPA pIC50 with SEM (in brackets) value; entry: Cl.O=C(O)c1cc(-c2cnc(O)nc2)cc([C@H]2CCN[C@@H]2C(=O)O)c1 [5i]
4.92±0.13

Return the recorded AMPA pIC50 with SEM (in brackets) value; entry: Cl.Cl.Nc1cc(C(=O)O)cc([C@H]2CCN[C@@H]2C(=O)O)c1 (racemic) [(±)-5j]
4.29±0.07

Return the recorded AMPA pIC50 with SEM (in brackets) value; entry: Cc1ccc(S(=O)(=O)Nc2cc(C(=O)O)cc([C@H]3CCN[C@@H]3C(=O)O)c2)cc1.Cl (racemic) [(±)-5k]
4.65±0.09

Return the recorded AMPA pIC50 with SEM (in brackets) value; entry: Cl.O=C(O)c1cc(-c2cccnc2)cc([C@H]2CCN[C@@H]2C(=O)O)c1 [5f]
4.57±0.13

Return the recorded AMPA pIC50 with SEM (in brackets) value; entry: Cl.O=C(O)c1cc(C(=O)O)cc([C@H]2CCN[C@@H]2C(=O)O)c1 [5c]
4.45 ± 0.04

Return the recorded AMPA pIC50 with SEM (in brackets) value; entry: Cl.O=C(O)c1cc(NS(=O)(=O)c2ccccn2)cc([C@H]2CCN[C@@H]2C(=O)O)c1 (racemic) [(±)-5l]
4.57±0.04

Return the recorded AMPA pIC50 with SEM (in brackets) value; entry: Cl.O=C(O)c1cc(-c2cnn[nH]2)cc([C@H]2CCN[C@@H]2C(=O)O)c1 [5d]
4.69 ±0.04

Return the recorded AMPA pIC50 with SEM (in brackets) value; entry: O=C(O)c1cccc([C@H]2[C@H](CCNCc3ccccc3)CN[C@@H]2C(=O)O)c1 [9c]
4.83 ± 0.05

====

target: GluK2 (Rattus norvegicus, UniProt P42260); assay: Radioligand binding at recombinant homomeric GluK2; conditions: read-out: GluK2 Ki, cloned homomeric iGluRs; [3H]KA; mean ± SEM
pKi: −log10 of the molar value.
Let's look at some compounds and their measured pKi.

compound | pKi
Cc1ccc(S(=O)(=O)Nc2cc(C(=O)O)cc([C@H]3CCN[C@@H]3C(=O)O)c2)cc1.Cl (racemic) [(±)-5k] | 4.72
Cl.O=C(O)c1cc(NC(=O)c2ccccc2)cc([C@H]2CCN[C@@H]2C(=O)O)c1 (racemic) [(±)-5m] | ~4.00
Cl.Cl.Nc1cc(C(=O)O)cc([C@H]2CCN[C@@H]2C(=O)O)c1 (racemic) [(±)-5j] | < 4.00

Query compound follows.
Return the recorded pKi value; entry: Cl.O=C(O)c1cc(NS(=O)(=O)c2ccccn2)cc([C@H]2CCN[C@@H]2C(=O)O)c1 (racemic) [(±)-5l]
~4.00
